B1: TPR t1 (parent)
chain: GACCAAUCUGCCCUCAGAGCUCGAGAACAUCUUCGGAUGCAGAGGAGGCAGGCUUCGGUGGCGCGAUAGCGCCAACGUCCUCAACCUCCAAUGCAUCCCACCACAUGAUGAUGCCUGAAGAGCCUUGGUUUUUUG

Variants of: B1
Method: polymerase ribozyme fitness, log enrichment relative to wild type (log ratio); higher = more active; in vitro selection for triplet polymerase activity
Parameter threshold = -3. Response is class 1 when polymerase ribozyme fitness (log ratio) meets or exceeds it, else class 0.

Worked examples follow.
[
  {
    "Variant key": "U9A G61U C85U G117U",
    "Class label": "class 1"
  },
  {
    "Variant key": "G60A A105U",
    "Class label": "class 1"
  },
  {
    "Variant key": "C28U G57U C86A A90G G93U U96G G113C A121U",
    "Class label": "class 0"
  },
  {
    "Variant key": "C76U G135U",
    "Class label": "class 1"
  },
  {
    "Variant key": "C70U C85U",
    "Class label": "class 1"
  }
]

Task: Could you tell me if the measured polymerase ribozyme fitness (log ratio) of G45U A105U reaches -3 or more?
Output: class 0

Task: Same read-out for C70A G113A ?
Output: class 1

Task: Same read-out for C13A A26U A46U U81G C114U ?
Output: class 0

Task: Same read-out for G45C A100G G120C ?
Output: class 0
